tested-system: human PCaR (Homo sapiens)
Sequence (P41180 20-1078): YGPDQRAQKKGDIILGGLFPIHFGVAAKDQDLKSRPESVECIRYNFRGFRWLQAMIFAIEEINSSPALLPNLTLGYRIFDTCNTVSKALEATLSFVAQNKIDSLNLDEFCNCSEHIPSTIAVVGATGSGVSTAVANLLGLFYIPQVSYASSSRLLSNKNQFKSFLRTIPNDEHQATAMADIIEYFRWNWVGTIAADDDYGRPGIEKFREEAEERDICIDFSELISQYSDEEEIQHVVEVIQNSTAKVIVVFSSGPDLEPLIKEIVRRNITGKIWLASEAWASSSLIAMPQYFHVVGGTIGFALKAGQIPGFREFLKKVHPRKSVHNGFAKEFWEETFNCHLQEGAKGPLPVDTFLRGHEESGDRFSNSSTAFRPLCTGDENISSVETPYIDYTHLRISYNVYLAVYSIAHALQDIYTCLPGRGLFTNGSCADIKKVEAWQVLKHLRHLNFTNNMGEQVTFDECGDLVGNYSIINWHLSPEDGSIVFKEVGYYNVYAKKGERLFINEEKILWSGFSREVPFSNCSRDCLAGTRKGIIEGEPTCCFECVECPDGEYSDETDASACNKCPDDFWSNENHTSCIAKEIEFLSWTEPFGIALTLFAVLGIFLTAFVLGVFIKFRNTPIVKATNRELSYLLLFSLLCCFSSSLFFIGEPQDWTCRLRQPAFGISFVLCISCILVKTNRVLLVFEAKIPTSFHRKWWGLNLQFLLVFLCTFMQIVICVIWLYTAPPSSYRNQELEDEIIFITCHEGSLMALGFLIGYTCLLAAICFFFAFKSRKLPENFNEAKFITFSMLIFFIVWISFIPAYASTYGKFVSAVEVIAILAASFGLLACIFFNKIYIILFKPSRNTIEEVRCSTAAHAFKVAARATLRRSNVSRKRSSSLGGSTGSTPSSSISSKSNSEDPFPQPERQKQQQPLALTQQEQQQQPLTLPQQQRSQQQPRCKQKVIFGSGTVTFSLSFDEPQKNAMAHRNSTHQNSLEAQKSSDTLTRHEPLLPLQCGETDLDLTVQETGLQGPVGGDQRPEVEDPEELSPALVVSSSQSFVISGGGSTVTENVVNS
protocol: Assay for intracellular free calcium (inhibition of calcium transients stimulated by extracellular calcium)
condition-notes: CCL39 fibroblasts stably transfected with human PCaR; "based on the above described assay"
quantity-kind: IC50 (nM)

# annotated cases, reported IC50 shown
COCCn1c(-c2ccc(C(C)C)cc2)nc2c(C(F)(F)F)c(Cc3cccnc3OC(C)C)cc(OC)c21 [Example 8] : 3.2
COCCn1c(-c2ccc(C(C)C)cc2)nc2c(Br)c(Cc3cccnc3SC)cc(OC)c21 [Example 1] : 3.4

[I] COCCn1c(-c2ccc(C(C)C)cc2)nc2c(C(F)(F)F)c(Cc3cccnc3[S+](C)[O-])cc(OC)c21 (stereo not shown) [Example 3]
[II] C#CCOc1ncccc1Cc1cc(OC)c2c(nc(-c3ccc(C(C)C)cc3)n2CCOC)c1C(F)(F)F [Example 9]
Would you kindly point out which of I and II has the smaller IC50 figure? Label of pick, please.
II
